TGT: Endothelial PAS domain-containing protein 1 (Homo sapiens)
ASSAY COMMENT: HIF-1a and HIF-2a reporter inhibitors, SAR follow-up, cell-based, luminescence, MIAPaCa-2, 786-0, panel (AID 652011)
CONDITION DETAILS: MIAPaCa-2/PANC HIF reporter, luciferase luminescence, desferoxamine, overnight, HIF2a PANC, run 1; at 99 µM (top of the series)
// label = true (1) if inhibition is not less than 60%, otherwise false (0)

Would you please look over these solved cases?
Req: Does CC(C)(C)c1ccc(-c2noc(CCC(=O)N3CCCCC3)n2)cc1 have a reported inhibition of at least 60%?
Resp: true (1)

Req: Assess whether reported inhibition for CC(C)c1ccc(-c2noc(CCC(=O)NC(C)(C)C)n2)cc1 sits at 60% or higher.
Resp: false (0)

Req: Record CC(C)(C)c1ccc(-c2noc(CCC(=O)NC3CCCC3)n2)cc1 ; criterion: inhibition no lower than 60%. Met?
Resp: true (1)

Req: Say whether CCc1ccc(-c2noc(CCC(=O)NC)n2)cc1 shows inhibition of 60% or more.
Resp: false (0)

Req: inhibition >= 60% for CC(C)(C)c1ccc(-c2noc(CCC(=O)NC3CCCCC3)n2)cc1 ?
Resp: true (1)

---
Req: Dear colleague, could you confirm whether CNC(=O)CCc1nc(-c2ccc(C)cc2)no1 has inhibition at or above 60%?
Resp: false (0)

Req: inhibition >= 60% for CNC(=O)CCc1nc(-c2ccc(OC)cc2)no1 ?
Resp: false (0)

Req: Decide: is the reported value of inhibition for CC(C)c1ccc(-c2noc(CCC(=O)NC3CC3)n2)cc1 equal to or greater than 60%?
Resp: false (0)

Req: Item CC(C)(C)NC(=O)CCc1nc(-c2ccc(C(C)(C)C)cc2)no1 with inhibition of 60% or above?
Resp: true (1)

Req: Is reported inhibition greater than or equal to 60% here: CCCCc1ccc(-c2noc(CCC(=O)NC(C)(C)C)n2)cc1
Resp: true (1)

Req: Hello, I need to know if CC(C)(C)c1ccc(-c2noc(CCC(=O)Nc3cccnc3)n2)cc1 has measured inhibition not below 60%. Thanks!
Resp: true (1)

Req: Form field: inhibition at least 60%? Entry: CCc1ccc(-c2noc(CCC(=O)NC3CC3)n2)cc1
Resp: false (0)
